Experiment: Cmax in CD-1 mouse at 10 mg/kg, po
Format: ADME, organism-based
Parameters: dose 10 mg/kg, route po
Settings: in vivo
Provide the reported Cmax of each item.
# value in ng/mL; strip the unit string

What the record says about Cn1cnc(COC(=O)N[C@H]2CCc3c(C(=O)Nc4ccc(F)c(Cl)c4)ccc(F)c32)n1 : Cmax is 1610

Value of Cmax reported for the molecule Cn1c(Cl)c2c(c1C(=O)Nc1ccc(F)c(Cl)c1)CC[C@@H]2NC(=O)OCc1c[nH]nn1 is 2510

According to the records, this molecule Cn1cc2c(c1C(=O)Nc1ccc(F)c(Cl)c1)CC[C@@H]2NC(=O)OCc1c[nH]nn1 displays Cmax of 4530

Summary for this molecule, Cn1cc2c(c1C(=O)Nc1ccc(F)c(Cl)c1)CC[C@@H]2NC(=O)OCc1nc[nH]n1 : Cmax is 3860

What the record says about Cn1cnc(COC(=O)N[C@H]2CCc3c2cn(C)c3C(=O)Nc2ccc(F)c(Cl)c2)n1 : Cmax is 4270

###

Assignment: determine reported half-life at 0.3 µM for the given compounds.
Assay: Metabolic stability in CD-1 mouse liver microsomes assessed as half life at 0.3 uM and measured upto 1 hrs
Format: ADME, Microsome

compound Cn1cnc(COC(=O)N[C@H]2CCc3c2cn(C)c3C(=O)Nc2ccc(F)c(Cl)c2)n1 , half-life at 0.3 µM observed: 1.9 h

So, Cn1cnc(COC(=O)N[C@H]2CCc3c(C(=O)Nc4ccc(F)c(Cl)c4)ccc(F)c32)n1 ? Its half-life at 0.3 µM was 1.23 h

###

Assay: in vitro
Details: human, liver microsomes
Description: Metabolic stability in human liver microsomes assessed as intrinsic clearance at 0.3 uM per mg of protein upto 1 hrs
Outcome: Condition met for microsomal CLint at 1 h, 0.3 µM of at least 9 µL/min/mg; Condition not met for anything lower.

Could you verify whether the entry Cn1cnc(COC(=O)N[C@H]2CCc3c2c(Br)n(C)c3C(=O)Nc2ccc(F)c(Cl)c2)n1 shows microsomal CLint at 1 h, 0.3 µM of no less than 9 µL/min/mg?
Condition not met

Is reported microsomal CLint at 1 h, 0.3 µM greater than or equal to 9 µL/min/mg here: Cn1c(Cl)c2c(c1C(=O)Nc1ccc(F)c(Cl)c1)CC[C@@H]2NC(=O)OCc1nc[nH]n1
Condition not met

Is microsomal CLint at 1 h, 0.3 µM for Cn1c(Cl)c2c(c1C(=O)Nc1ccc(F)c(Cl)c1)CC[C@@H]2NC(=O)OCc1c[nH]nn1 at or above 9 µL/min/mg?
Condition met

Hi, just wondering whether Cn1cnc(COC(=O)N[C@H]2CCc3c(C(=O)Nc4ccc(F)c(Cl)c4)ccc(F)c32)n1 shows microsomal CLint at 1 h, 0.3 µM of 9 µL/min/mg or higher.
Condition not met

Hi, just wondering whether Cn1cc2c(c1C(=O)Nc1ccc(F)c(Cl)c1)CC[C@@H]2NC(=O)OCc1c[nH]nn1 shows microsomal CLint at 1 h, 0.3 µM of 9 µL/min/mg or higher.
Condition not met

###

Provide the recorded solubility for the entries that follow.
Assay: Aqueous solubility of compound at pH 7.4
Assay type: physicochemical
Conditions: buffer
Field format: number, assumed µM, no unit text.

Lab note: Cc1c2c(c(C(=O)Nc3ccc(F)c(Cl)c3)n1C)CC[C@@H]2NC(=O)OCc1ncn(C)n1 gave solubility of 5

get_value(item= Cn1cnc(COC(=O)N[C@H]2CCc3c2cn(C)c3C(=O)Nc2ccc(F)c(Cl)c2)n1 , readout=solubility) returns 24

The recorded solubility for Cn1cc2c(c1C(=O)Nc1ccc(F)c(Cl)c1)CC[C@@H]2NC(=O)OCc1c[nH]nn1 is 10

Value of solubility reported for the molecule Cn1cc2c(c1C(=O)Nc1ccc(F)c(Cl)c1)CC[C@@H]2NC(=O)OCc1nc[nH]n1 is 23

Looking up Cn1cnc(COC(=O)N[C@H]2CCc3c2c(Cl)n(C)c3C(=O)Nc2ccc(F)c(Cl)c2)n1 , I found its solubility recorded as 5
